test system: Salmonella typhimurium Ames mutagenicity, literature compiled; assay: DSSTox (CPDBAS) Carcinogenic Potency Database Salmonella Mutagenicity
Active and inactive are the calls of the source.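 Rule for the calls: active = chemicals rated mutagenic or weakly mutagenic in the Salmonella bacterial test by one literature review, or positive overall by another; inconclusive = no clear call, values can overlap the other calls; inactive = the rest.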
Would you mind answering with one of these outcomes? true (1) (active), false (0) (inactive)

1. Cc1ccc(N=C=O)cc1N=C=O
true (1)
2. O=C(O)c1ccccc1-c1c2cc(I)c(=O)c(I)c-2oc2c(I)c(O)c(I)cc12
false (0)
3. Cc1cc(=O)n(-c2ccccc2)n1C
false (0)

Can you look up the reported call for "C#C[C@]1(O)CC[C@H]2[C@@H]3CCC4=C(CCC(=O)C4)[C@H]3CC[C@@]21C" for me?
false (0)

Another compound to check: O=C(c1ccccc1)C(O)c1ccccc1 (stereo not given)
false (0)

Another compound to check: C1CC2OC2CC1C1CO1 (stereo not given)
true (1)

Another compound to check: "c1ccccc1"
false (0)

Another compound to check: "O=C(O)C(Cl)(Cl)Cl"
false (0)

====

tested on: Salmonella typhimurium Ames mutagenicity, literature compiled; assay: DSSTox (CPDBAS) Carcinogenic Potency Database Salmonella Mutagenicity
Activity calls are given as the source filed them.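 The calls were made as follows: active = chemicals rated mutagenic or weakly mutagenic in the Salmonella bacterial test by one literature review, or positive overall by another; inconclusive = no clear call, values can overlap the other calls; inactive = the rest.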
property_label: outcome

1) CCN(CC)C(=O)/C(Cl)=C(\C)OP(=O)(OC)OC
active; inactive
2) O=Nc1ccc(NO)cc1
active; inactive
3) C/C=N/O
inactive
4) CC1CCC(C(C)C)C(O)C1 (stereo unspecified)
inactive; active
5) CN(C)N=O
active
6) CCNc1nc(Cl)nc(NCC)n1
inactive
7) COCCl
inactive; active
8) OCCN(CCO)CCO
inactive; active

Hi team, please reply with outcome for each item in this list.
1. O=C/C=C/c1ccccc1
2. C#C[C@]1(O)CC[C@H]2[C@@H]3CCc4cc(O)ccc4[C@H]3CC[C@@]21C
3. O=C(O)CN(CC(=O)O)CC(=O)O
4. O=NN1CCCN(N=O)CC1
5. O=C/C=C/O
6. CCc1cc(C(N)=S)ccn1
7. Nc1ccc2c(c1)C(=O)c1ccccc1C2=O

["inactive", "inactive", "inactive; active", "active", "inactive", "inactive; active", "active"]

Could you share what outcome was measured for "Nc1cccc2c(N)cccc12" , tested on Salmonella typhimurium Ames mutagenicity, literature compiled?
active

====

tested on: Salmonella typhimurium Ames mutagenicity, literature compiled; experiment: DSSTox (CPDBAS) Carcinogenic Potency Database Salmonella Mutagenicity
Activity calls are given as the source filed them.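 Rule for the calls: active = chemicals rated mutagenic or weakly mutagenic in the Salmonella bacterial test by one literature review, or positive overall by another; inconclusive = no clear call, values can overlap the other calls; inactive = the rest.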
Would you mind answering with one of these outcomes? active, inactive

Answered examples (5):
1. CC(=O)OCc1ccccc1
inactive
2. C=CC(O)c1ccc2c(c1)OCO2 (stereo unspecified)
inactive
3. ClCC(Cl)CCl
active
4. O=NN(CCCl)C(=O)N[C@@H]1[C@@H](O)[C@H](O)[C@@H](CO)O[C@@H]1O
active
5. CC(=O)OC[C@]12C[C@H](OC(=O)CC(C)C)C(C)=C[C@H]1O[C@@H]1[C@H](O)[C@@H](OC(C)=O)[C@@]2(C)C12CO2 (stereo partly specified)
inactive

Can you look up the reported call for CC(=O)C(N=Nc1ccc(-c2ccc(N=NC(C(C)=O)C(=O)Nc3ccccc3)c(Cl)c2)cc1Cl)C(=O)Nc1ccccc1 (stereo unspecified) for me?
inactive

Another molecule to check: "Nc1ccc(Cc2ccc(N)cc2)cc1"
active

Another molecule to check: CCCCC(CC)COC(=O)c1ccccc1C(=O)OCC(CC)CCCC (stereo unspecified)
inactive
